FYI, the data here is from patent US20240228489A1.

Target: UniProtKB P11229
Sequence (P11229 1-460): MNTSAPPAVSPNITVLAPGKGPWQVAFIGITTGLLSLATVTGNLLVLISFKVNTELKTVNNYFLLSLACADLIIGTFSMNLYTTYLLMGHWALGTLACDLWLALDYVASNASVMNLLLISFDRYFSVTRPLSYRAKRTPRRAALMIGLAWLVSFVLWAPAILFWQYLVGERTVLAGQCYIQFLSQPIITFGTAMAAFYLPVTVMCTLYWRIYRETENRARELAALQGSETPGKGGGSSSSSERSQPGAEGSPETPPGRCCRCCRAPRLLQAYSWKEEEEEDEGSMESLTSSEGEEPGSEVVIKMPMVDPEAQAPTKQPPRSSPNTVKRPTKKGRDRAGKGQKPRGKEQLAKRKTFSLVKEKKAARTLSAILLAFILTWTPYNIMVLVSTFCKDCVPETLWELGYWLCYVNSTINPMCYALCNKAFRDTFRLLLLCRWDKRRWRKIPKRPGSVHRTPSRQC
Test: mAChR M1 cell-based functional assay (calcium mobilization), agonist mode: compound alone, Emax relative to acetylcholine maximum
Details: human mAChR M1
Protocol: Chinese hamster ovary (CHO-K1) cells stably expressing rat (r)M1 were purchased from the American Type Culture Collection and cultured according to their indicated protocol. […] Calcium flux was measured using the Functional Drug Screening System (FDSS) 6000 (Hamamatsu Corporation, Tokyo, Japan) as an increase in the fluorescent static ratio. […] Agonist activity was analyzed as a concentration-dependent increase in calcium mobilization upon compound addition. […]
QUANTITY KIND: EC50 (µM)

SMILES ENTRY | QUANTITY KIND | NUMERIC READOUT
[2H]C1([2H])c2ncccc2C(=O)N1Cc1ccc(-c2ccc(OC(C)C)c3nn(C)cc23)cc1F | EC50 | 5.43

(a) [2H]C1([2H])c2ncccc2C(=O)N1Cc1c(F)cc(-c2ccc(OCCOC)c3nn(C)cc23)cc1F
(b) [2H]C1([2H])c2ncccc2C(=O)N1Cc1c(C)cc(-c2ccc(OC)c3nn(C)cc23)cc1F
Query string: For the two items a and b , which reports the higher EC50 value? In your reply, give the label of the chosen option.
Result string: a
